Target: Peptide deformylase (Escherichia coli)
Sequence (Q9JN24 whole entry): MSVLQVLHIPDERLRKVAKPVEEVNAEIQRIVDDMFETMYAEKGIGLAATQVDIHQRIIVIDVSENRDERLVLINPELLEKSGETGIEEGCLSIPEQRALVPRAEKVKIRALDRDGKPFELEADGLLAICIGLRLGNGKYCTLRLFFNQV
pIC50: −log10 of the molar value.
Measured Metric: pIC50

[
  {
    "Molecule": "CCCC[C@H](CN(O)C=O)C(=O)N1CCC[C@H]1C(=O)N(C)C",
    "Measured Metric": "pIC50",
    "Value Measured": 6.40
  },
  {
    "Molecule": "CCCC[C@H](CN(O)C=O)C(=O)N[C@H](C(=O)N(C)C)C(C)(C)C (stereo in doubt; form 1)",
    "Measured Metric": "pIC50",
    "Value Measured": 8.15
  },
  {
    "Molecule": "CCCC[C@H](CN(O)C=O)C(=O)N[C@H](C(C)=O)C(C)(C)C",
    "Measured Metric": "pIC50",
    "Value Measured": 7.70
  },
  {
    "Molecule": "CCCC[C@H](CN(O)C=O)C(=O)N[C@H](C(=O)OC)C(C)(C)C",
    "Measured Metric": "pIC50",
    "Value Measured": 7.52
  },
  {
    "Molecule": "CCCC[C@H](CN(O)C=O)C(=O)N[C@H](C(=O)N(C)C)C(C)C",
    "Measured Metric": "pIC50",
    "Value Measured": 7.70
  },
  {
    "Molecule": "CCCC[C@H](CN(O)C=O)C(=O)N[C@H](C(=O)N(CCc1ccccc1)Cc1ccccc1)C(C)(C)C",
    "Measured Metric": "pIC50",
    "Value Measured": 7.05
  },
  {
    "Molecule": "CCCC[C@H](CN(O)C=O)C(=O)N[C@H](C(=O)N1CCC(C)CC1)C(C)(C)C",
    "Measured Metric": "pIC50",
    "Value Measured": 8.00
  },
  {
    "Molecule": "CCCC[C@H](CN(O)C=O)C(=O)N[C@@H](Cc1ccc(O)cc1)C(=O)N(C)C",
    "Measured Metric": "pIC50",
    "Value Measured": 6.52
  },
  {
    "Molecule": "CCCC[C@H](CN(O)C=O)C(=O)N[C@H](C(=O)N1CCC(C(=O)OCC)CC1)C(C)(C)C",
    "Measured Metric": "pIC50",
    "Value Measured": 8.00
  },
  {
    "Molecule": "CCCC[C@H](CN(O)C=O)C(=O)N[C@@H](CCCNC(=N)N)C(=O)N(C)C",
    "Measured Metric": "pIC50",
    "Value Measured": 7.70
  }
]
